test method notes: Single dose PK in healthy subjects (Cohorts 1, 2, S1 and S2), plasma
Type: in vivo, human
study conditions: human, plasma, intravenous, 28 mg; 1.5 hr; read-out: Plasma concentration, Median
Description: […]
readout kind: concentration at 1.5 h (ng/mL)
// note: answer is a bare numeric in ng/mL

*Q* Could you share which concentration at 1.5 h value was measured for "COC(=O)N1CCC[C@H](NS(C)(=O)=O)[C@@H]1CO[C@H]1CC[C@@H](c2ccccc2)CC1" ?
*A* 47.1

---

test method notes: Single dose PK in healthy subjects (Cohorts 1, 2, S1 and S2), plasma
Type: in vivo, human
study conditions: human, plasma, intravenous, 7 mg; 1.5 hr; read-out: Plasma concentration, Median
readout kind: concentration at 1.5 h (ng/mL)
// note: answer is a bare numeric in ng/mL

*Q* Could you share which concentration at 1.5 h value was measured for "COC(=O)N1CCC[C@H](NS(C)(=O)=O)[C@@H]1CO[C@H]1CC[C@@H](c2ccccc2)CC1" ?
*A* 13

---

test method notes: Single dose PK in healthy subjects (Cohorts 1, 2, S1 and S2), plasma
Format: in vivo, human
study conditions: human, plasma, intravenous, 14 mg; 1.5 hr; read-out: Plasma concentration, Median
readout kind: concentration at 1.5 h (ng/mL)
// note: answer is a bare numeric in ng/mL

*Q* Could you share which concentration at 1.5 h value was measured for COC(=O)N1CCC[C@H](NS(C)(=O)=O)[C@@H]1CO[C@H]1CC[C@@H](c2ccccc2)CC1 [Compound A] ?
*A* 29

---

test method notes: Single dose PK in patients with narcolepsy (Cohorts 5, 6 and 7), plasma
Format: in vivo, human
study conditions: human, plasma, intravenous, 5 mg, Cmpd A 5 mg; Mean; Cohort 5, 6, 7
readout kind: Tmax (h)
// note: answer is a bare numeric in h

*Q* Could you share which Tmax value was measured for COC(=O)N1CCC[C@H](NS(C)(=O)=O)[C@@H]1CO[C@H]1CC[C@@H](c2ccccc2)CC1 [Compound A] ?
*A* 8

---

test method notes: Single dose PK in healthy subjects (Cohorts 1, 2, S1 and S2), plasma
Format: in vivo, human
study conditions: human, plasma, intravenous, 180 mg; 8 hr; read-out: Plasma concentration, Q1
Source text: […]
readout kind: concentration at 8 hr (ng/mL)
// note: answer is a bare numeric in ng/mL

*Q* Could you share which concentration at 8 hr value was measured for COC(=O)N1CCC[C@H](NS(C)(=O)=O)[C@@H]1CO[C@H]1CC[C@@H](c2ccccc2)CC1 [Compound A] ?
*A* 277

---

test method notes: Single dose PK in healthy subjects (Cohorts 1, 2, S1 and S2), plasma
Type: in vivo, human
study conditions: human, plasma, iv, 240 mg, 240 mg single IV infusion; 1 hr; read-out: Plasma Concentration of Cmpd A, Maximum
readout kind: concentration at 1 h (ng/mL)
// note: answer is a bare numeric in ng/mL

*Q* Could you share which concentration at 1 h value was measured for "COC(=O)N1CCC[C@H](NS(C)(=O)=O)[C@@H]1CO[C@H]1CC[C@@H](c2ccccc2)CC1" ?
*A* 465

---

test method notes: Single dose PK in healthy subjects (Cohorts 1, 2, S1 and S2), plasma
Type: in vivo, human
study conditions: human, plasma, intravenous, 180 mg; 6 hr; read-out: Plasma concentration, Q1
readout kind: concentration at 6 hr (ng/mL)
// note: answer is a bare numeric in ng/mL

*Q* Could you share which concentration at 6 hr value was measured for COC(=O)N1CCC[C@H](NS(C)(=O)=O)[C@@H]1CO[C@H]1CC[C@@H](c2ccccc2)CC1 [Compound A] ?
*A* 285

---

test method notes: Single dose PK in healthy subjects (Cohorts 1, 2, S1 and S2), plasma
Format: in vivo, human
study conditions: human, plasma, intravenous, 7 mg; 4 hr; read-out: Plasma concentration, Maximum
readout kind: concentration at 4 h (ng/mL)
// note: answer is a bare numeric in ng/mL

*Q* Could you share which concentration at 4 h value was measured for "COC(=O)N1CCC[C@H](NS(C)(=O)=O)[C@@H]1CO[C@H]1CC[C@@H](c2ccccc2)CC1" ?
*A* 20.6

---

test method notes: Single dose PK in healthy subjects (Cohorts 1, 2, S1 and S2), plasma
Format: in vivo, human
study conditions: human, plasma, intravenous, 28 mg; 2 hr; read-out: Plasma concentration, Median
From the text: […]
readout kind: concentration at 2 h (ng/mL)
// note: answer is a bare numeric in ng/mL

*Q* Could you share which concentration at 2 h value was measured for "COC(=O)N1CCC[C@H](NS(C)(=O)=O)[C@@H]1CO[C@H]1CC[C@@H](c2ccccc2)CC1" ?
*A* 54.9

---

test method notes: Single dose PK in healthy subjects (Cohorts 1, 2, S1 and S2), plasma
Assay type: in vivo, human
study conditions: human, plasma, intravenous, 112 mg; 2 hr; read-out: Plasma concentration, Q1
readout kind: concentration at 2 h (ng/mL)
// note: answer is a bare numeric in ng/mL

*Q* Could you share which concentration at 2 h value was measured for "COC(=O)N1CCC[C@H](NS(C)(=O)=O)[C@@H]1CO[C@H]1CC[C@@H](c2ccccc2)CC1" ?
*A* 195

---

test method notes: Single dose PK in healthy subjects (Cohorts 1, 2, S1 and S2), plasma
Assay type: in vivo, human
study conditions: human, plasma, intravenous, 180 mg; 3 hr; read-out: Plasma concentration, Maximum
Excerpt: […]
readout kind: concentration at 3 h (ng/mL)
// note: answer is a bare numeric in ng/mL

*Q* Could you share which concentration at 3 h value was measured for COC(=O)N1CCC[C@H](NS(C)(=O)=O)[C@@H]1CO[C@H]1CC[C@@H](c2ccccc2)CC1 [Compound A] ?
*A* 355

---

test method notes: Single dose PK in healthy subjects (Cohorts 1, 2, S1 and S2), plasma
Assay type: in vivo, human
study conditions: human, plasma, intravenous, 180 mg; 6 hr; read-out: Plasma concentration, Maximum
readout kind: concentration at 6 h (ng/mL)
// note: answer is a bare numeric in ng/mL

*Q* Could you share which concentration at 6 h value was measured for "COC(=O)N1CCC[C@H](NS(C)(=O)=O)[C@@H]1CO[C@H]1CC[C@@H](c2ccccc2)CC1" ?
*A* 322

---

test method notes: Single dose PK in healthy subjects (Cohorts 1, 2, S1 and S2), plasma
Assay type: in vivo, human
study conditions: human, plasma, iv, 14 mg, 14 mg single IV infusion, healthy subjects; read-out: CL Mean (converted)
readout kind: clearance

*Q* Could you share which clearance value was measured for "COC(=O)N1CCC[C@H](NS(C)(=O)=O)[C@@H]1CO[C@H]1CC[C@@H](c2ccccc2)CC1" ?
*A* 718 mL/min

---

test method notes: Single dose PK in healthy subjects (Cohorts 1, 2, S1 and S2), plasma
Format: in vivo, human
study conditions: human, plasma, iv, 180 mg, 180 mg single IV infusion, healthy subjects; read-out: Vss Mean
readout kind: Vd (L)
// note: answer is a bare numeric in L

*Q* Could you share which Vd value was measured for COC(=O)N1CCC[C@H](NS(C)(=O)=O)[C@@H]1CO[C@H]1CC[C@@H](c2ccccc2)CC1 [Compound A] ?
*A* 90.8

---

test method notes: Single dose PK in healthy subjects (Cohorts 1, 2, S1 and S2), plasma
Assay type: in vivo, human
study conditions: human, plasma, intravenous, 7 mg; 1 hr After End of Infusion; read-out: Plasma concentration, Minimum
readout kind: concentration at 1 h after end of infusion (ng/mL)
// note: answer is a bare numeric in ng/mL

*Q* Could you share which concentration at 1 h after end of infusion value was measured for COC(=O)N1CCC[C@H](NS(C)(=O)=O)[C@@H]1CO[C@H]1CC[C@@H](c2ccccc2)CC1 [Compound A] ?
*A* 4.34

---

test method notes: Single dose PK in patients with narcolepsy (Cohorts 5, 6 and 7), plasma
Type: in vivo, human
study conditions: human, plasma, iv, IV administration, NT1 patients; read-out: mean estimates of plasma clearance
readout kind: clearance

*Q* Could you share which clearance value was measured for "COC(=O)N1CCC[C@H](NS(C)(=O)=O)[C@@H]1CO[C@H]1CC[C@@H](c2ccccc2)CC1" ?
*A* 833 to 950 mL/min

---

test method notes: Single dose PK in healthy subjects (Cohorts 1, 2, S1 and S2), plasma
Assay type: in vivo, human
study conditions: human, plasma, intravenous, 7 mg; 1 hr; read-out: Plasma concentration, Q1
readout kind: concentration at 1 hr (ng/mL)
// note: answer is a bare numeric in ng/mL

*Q* Could you share which concentration at 1 hr value was measured for "COC(=O)N1CCC[C@H](NS(C)(=O)=O)[C@@H]1CO[C@H]1CC[C@@H](c2ccccc2)CC1" ?
*A* 9.45

---

test method notes: Single dose PK in healthy subjects (Cohorts 1, 2, S1 and S2), plasma
Type: in vivo, human
study conditions: human, plasma, intravenous, 56 mg; 6 hr; read-out: Plasma concentration, Q3
Text: […]
readout kind: concentration at 6 h (ng/mL)
// note: answer is a bare numeric in ng/mL

*Q* Could you share which concentration at 6 h value was measured for "COC(=O)N1CCC[C@H](NS(C)(=O)=O)[C@@H]1CO[C@H]1CC[C@@H](c2ccccc2)CC1" ?
*A* 103
